assay-text: chemical genetic growth profiling, strain panel (AID 1159580);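 note: tested at 20 µM; growth read once vehicle control cultures reached saturation at 30 °C; 1 = growth at the plate median or of vehicle wells; lower values mean less growth of the strain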
condition-details: S. cerevisiae deletion strains, growth OD, locus YBL061C, strain skt5, active compounds read low
About 2,000 (36%) of roughly 5,500 compounds were called active. Inconclusive results (about 18%) are left out. Some of the results follow.
readout-type: normalized growth
// return a plain number; no unit text

Check the records and state normalized growth for CC1(C)S[C@@H]2[C@H](NC(=O)[C@H](NC(=O)N3CCNC3=O)c3ccccc3)C(=O)N2C1C(=O)O (stereo not given in full)
0.971

* * *

assay-text: chemical genetic growth profiling, strain panel (AID 1159580)
condition-details: S. cerevisiae strains, growth OD, strain wild type, active compounds read low
In all, about 5,500 compounds went through this assay and about 2,000 (36%) were called active. Another 18% or so got no clear call; they are omitted. The list shows a part of the results.
# normalized growth listing for each entry below
// print number alone

Take a look at these entries with their results.
compound	normalized growth
CNC1(C)C2CCC(C2)C1(C)C (configuration not stated)	0.991
Nc1cc(-c2ccc(Cl)cc2)nc(N)n1	0.966
COC1C(O)C(O)C(O)[C@@H](O)C1O (some centres not stated)	1.01
CC1(C)/C(=N/OC(=O)c2cccc(C(F)(F)F)c2)[C@]2(C)CCC1C2	0.999
CN(C)C=Nc1nc2c(s1)CCc1ccccc1-2	0.997

Now look at this one.
Annotate the compound C/C=C(/C(=C/C)c1ccc(O)cc1)c1ccc(O)cc1 with its measured normalized growth.
0.877

* * *

# normalized growth listing for each entry below
assay-text: chemical genetic growth profiling, strain panel (AID 1159580)
condition-details: S. cerevisiae deletion strains, growth OD, locus YER015W, strain faa2, active compounds read low
About 2,000 (36%) of roughly 5,500 compounds were called active. Roughly 18% stayed inconclusive and do not appear here. The list shows a part of the results.
Keep the answer to the number alone.

compound	normalized growth
COc1ccc2c(c1)OC[C@@H](Cc1ccc(OC)c(OC)c1)[C@@H]2O	1

// switching to the query compound
Name the recorded normalized growth of the compound listed here: CC(C)(CO)C(O)C(=O)NCCCO (stereo not given)
1.01

* * *

assay-text: chemical genetic growth profiling, strain panel (AID 1159580)
condition-details: S. cerevisiae deletion strains, growth OD, locus YJR066W, strain TOR1 (second series), active compounds read low
Among all 5,500 compounds or so, about 2,000 (36%) were called active. Roughly 18% stayed inconclusive and do not appear here. The list shows a part of the results.
Values of normalized growth strictly less than 0.8 map to 1 (yes), and values of at least 0.8 map to 0 (no).

molecule	assigned-class
CCC(C)c1ccccc1NC(=O)c1cc2cccc([N+](=O)[O-])c2[nH]1 (stereo unspecified)	0 (no)
O=C(Nc1cc(Cl)cc(Cl)c1)Nc1cc(-c2ccco2)[nH]n1	1 (yes)
Cc1c(Cl)cccc1NC(=S)N1CCCN(c2nc3ccc(Cl)cc3s2)CC1	0 (no)

State whether 0.8 exceeds normalized growth recorded for Cc1c(C(=O)N2CCCCC2)cc(-c2ccccc2)n1-c1ccccc1 .
0 (no)

Does the reported normalized growth of the following molecule sit strictly below 0.8? O=C(NCc1ccco1)c1ccc(Oc2cc(Cl)cc(Cl)c2)o1
0 (no)

Hello, I'm reviewing records and need to know if normalized growth of Cc1oc2c(F)c(F)c(F)c(F)c2c1C(=O)ONC(N)c1ccc(OS(=O)(=O)N(C)C)cc1 (stereo unspecified) is below 0.8. Could you check?
0 (no)

* * *

assay-text: chemical genetic growth profiling, strain panel (AID 1159580)
condition-details: S. cerevisiae deletion strains, growth OD, locus YLR418C, strain cdc73, active compounds read low
About 2,000 (36%) of roughly 5,500 compounds were called active. Another 18% or so got no clear call; they are omitted. The list shows a part of the results.
Decision: normalized growth beneath 0.7 gives y; normalized growth meeting or exceeding 0.7 gives n.

compound	assigned-class
COc1ccc([C@@H]2CC(=O)c3c(O)cc(O)cc3O2)cc1O	n
C[C@@H]1O[C@@H](O[C@H]2[C@@H](Oc3cc(O)c4c(c3)O[C@H](c3ccc(O)cc3)CC4=O)O[C@H](CO)[C@@H](O)[C@@H]2O)[C@H](O)[C@H](O)[C@H]1O	n
COc1ccc(-c2c(O)c3cc4c(c(CC=C(C)C)c3oc2=O)OC(C)(C)CC4)cc1	n
COc1ccc(-c2coc3c(OC)c(OC)cc(OC)c3c2=O)cc1	n

Field: below-cutoff. Rule: recorded normalized growth strictly less than 0.7. Subject: COc1c(CC=C(C)C)c2c(c3oc(=O)c(-c4ccc(O)cc4)c(O)c13)C=CC(C)(C)O2
y

Is the reported normalized growth for COc1c2c(c(CC=C(C)C)c3oc(=O)c(-c4ccc(O)cc4)c(O)c13)OC(C)(C)C=C2 strictly below 0.7?
y

Input NC/C=C/C(=O)O ; condition: normalized growth strictly below 0.7. Does it hold?
n

A record lists O=C1CC(c2ccc(O)cc2)Oc2ccccc21 (stereo not given) . Is its normalized growth below 0.7?
y

# strict comparison: is reported normalized growth < 0.7? input = COc1ccc(C2CC(=O)c3ccc(OC)cc3O2)cc1 (stereo not given)
y

Dear reviewer, please state whether O=C1C[C@@H](c2ccc(O)cc2)Oc2cc(O)cc(O)c21 has normalized growth strictly beneath 0.7.
n

* * *

assay-text: chemical genetic growth profiling, strain panel (AID 1159580);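 note: tested at 20 µM; growth read once vehicle control cultures reached saturation at 30 °C; 1 = growth at the plate median or of vehicle wells; lower values mean less growth of the strain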
condition-details: S. cerevisiae deletion strains, growth OD, locus YDL005C, strain med2, active compounds read low
In all, about 5,500 compounds went through this assay and about 2,000 (36%) were called active. Roughly 18% stayed inconclusive and do not appear here. Some of the results follow.
Some compounds, each annotated with its measured normalized growth.
Lab note: jot down the number only; don't add units.

compound	normalized growth
Cc1ccc(O)cc1	1.03
C/C=C(/C(=C/C)c1ccc(O)cc1)c1ccc(O)cc1	0.992
Cc1cccc(Nc2cc(Cl)nc(SCC(=O)O)n2)c1C	0.99
CC(C)=CCc1c(O)cc2oc(C)cc(=O)c2c1O	0.981
CCc1nc(N)nc(N)c1-c1ccc(Cl)cc1	0.972

Fill in reported normalized growth for this entry: NC(N)=Nc1nc(CSCCC(N)=NS(N)(=O)=O)cs1
0.974

# return recorded normalized growth for entry COc1cc2c(cc1OC)C(=O)C(CC1CCN(Cc3ccccc3)CC1)C2 (stereo not drawn)
1.03

// Input: O=C(Cc1ccccc1)NO . Output its normalized growth only.
0.956

Entry CCC(C(=O)O)c1ccccc1 (stereo not drawn) needs its normalized growth filled in; supply it.
0.98

Identify the reported normalized growth for the following entry. O=C(O)COc1cc(Cl)c(Cl)cc1Cl
0.995

Fill in reported normalized growth for this entry: OCc1ccccc1O[C@@H]1O[C@H](CO)[C@@H](O)[C@H](O)[C@H]1O
0.989

Query normalized growth for CCCCOc1ccc(CC(=O)NO)cc1
0.994

Dear colleague, please send me the reported normalized growth for CC(C)(N=NC(C)(C)C(=N)N)C(=N)N when you can.
1.03

* * *

assay-text: chemical genetic growth profiling, strain panel (AID 1159580);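 note: tested at 20 µM; growth read once vehicle control cultures reached saturation at 30 °C; 1 = growth at the plate median or of vehicle wells; lower values mean less growth of the strain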
condition-details: S. cerevisiae deletion strains, growth OD, locus YML016C, strain PPZ1, active compounds read low
Screen size: about 5,500 compounds; about 2,000 (36%) were called active. About 18% were inconclusive and are not listed. The list shows a part of the results.
readout-type: normalized growth
Reply with the value as a number alone.

Solved entries:
compound	normalized growth
COc1ccc(-c2coc3c(OC)c(OC)ccc3c2=O)cc1	0.993
COc1ccc(-c2coc3c(OC)c(O)ccc3c2=O)cc1	0.963
CCN(CC)C(=S)SSC(=S)N(CC)CC	0.052

Tell me measured normalized growth for O=C(O)C1C(O)CCC2CN3CCc4c([nH]c5ccccc45)C3CC21 (centres undefined) please.
1.01

Identify normalized growth associated with the compound CCC1(c2ccccc2)C(=O)NCNC1=O
1

State its normalized growth: CNc1ccccc1C(=O)N1CCc2c([nH]c3ccccc23)C1=O
1.02

* * *

assay-text: chemical genetic growth profiling, strain panel (AID 1159580);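 note: tested at 20 µM; growth read once vehicle control cultures reached saturation at 30 °C; 1 = growth at the plate median or of vehicle wells; lower values mean less growth of the strain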
condition-details: S. cerevisiae deletion strains, growth OD, locus YLR262C, strain YPT6
Hit rate of the full screen: of about 5,500 compounds, about 2,000 (36%) were called active. Inconclusive results (about 18%) are left out. Rule as the data show it: active = normalized growth mostly below about 0.91 (no sharp cut-off); inconclusive = no clear call, values can overlap the other calls; inactive = mostly above about 0.92. This is one part of the list.
I would appreciate it if you answered using one of these outcomes: 1 (yes) for active, 0 (no) for inactive

compound	assigned-class
COC(=O)COc1ccc(Cl)cc1Cl	0 (no)
O=C(O)COc1cc(Cl)c(Cl)cc1Cl	0 (no)
CNc1ccccc1C(=O)N1CCc2c([nH]c3ccccc23)C1=O	0 (no)
OCC(O)Cc1ccc2c(c1)OCO2 (stereo not drawn)	0 (no)
CCC(C(=O)O)c1ccccc1 (stereo not drawn)	0 (no)
O=C(O)c1ccccc1OP(=O)(O)O	0 (no)
Cc1cc(NC(=O)C(Cl)(Cl)Cl)n(-c2ccccc2)n1	1 (yes)
O=C(O)CSCC(=O)N1CCc2c([nH]c3ccccc23)C1C(F)(F)F (stereo not drawn)	0 (no)
Cc1c(Cl)cccc1SCC(=O)O	0 (no)
CCC(C(N)=O)c1ccccc1 (stereo not drawn)	0 (no)

# outcome recorded in this test, key = CN(C)/C=C(\C#N)C(=O)Nc1ccc(F)c(Cl)c1
0 (no)

I would be grateful if you could indicate the recorded call for C=CCc1ccc2c(c1)OCO2 .
0 (no)

Would you mind telling me which call this test gave COC(=O)C1[C@H]2C[C@H]3c4[nH]c5ccccc5c4CCN3C[C@@H]2CC[C@@H]1O (stereo partly drawn) ?
0 (no)
